The reported measurements were obtained from the NIST ThermoML archive (doi:10.1016/j.fluid.2010.03.017).

experiment: cn = amount concentration of the nth substance listed, in mol/dm3; conditions: 311.65 K; 101 kPa; Liquid; c2 = 0
readout_label: mass density (kg/m3)

| compound | readout_label | reported_measurement |
| --- | --- | --- |
| CO [methanol] + [Cl-].c1ccc([P+](c2ccccc2)(c2ccccc2)c2ccccc2)cc1 | mass density | 773.896 |
| CCO [ethanol] + [Cl-].c1ccc([P+](c2ccccc2)(c2ccccc2)c2ccccc2)cc1 | mass density | 773.4 |
| CC#N [acetonitrile] + [Cl-].c1ccc([P+](c2ccccc2)(c2ccccc2)c2ccccc2)cc1 | mass density | 762.77 |
| O [water] + [Cl-].c1ccc([P+](c2ccccc2)(c2ccccc2)c2ccccc2)cc1 | mass density | 993.13 |

* * *

Overview of recorded mass density for various molecules
assay: cn = amount concentration of the nth substance listed, in mol/dm3; settings: 311.65 K; 101 kPa; Liquid; c1 = 0.05

| molecule | mass density, kg/m3 |
| --- | --- |
| [Cl-].c1ccc([P+](c2ccccc2)(c2ccccc2)c2ccccc2)cc1 [tetraphenylphosphonium chloride] + O | 995.58 |
| [Cl-].c1ccc([P+](c2ccccc2)(c2ccccc2)c2ccccc2)cc1 [tetraphenylphosphonium chloride] + CC#N | 773.42 |
| [Cl-].c1ccc([P+](c2ccccc2)(c2ccccc2)c2ccccc2)cc1 [tetraphenylphosphonium chloride] + CO | 784.14 |
| [Cl-].c1ccc([P+](c2ccccc2)(c2ccccc2)c2ccccc2)cc1 [tetraphenylphosphonium chloride] + CCO | 781.91 |

* * *

experiment: specific heat capacity at constant pressure; cn = amount concentration of the nth substance listed, in mol/dm3; conditions: 311.65 K; 101 kPa; Liquid; heat flux microcalorimetry; c1 = 0.1
Measured specific heat capacity, listed per entry for reference.

| compound | specific heat capacity [J/K/kg] |
| --- | --- |
| [Cl-].c1ccc([P+](c2ccccc2)(c2ccccc2)c2ccccc2)cc1 [tetraphenylphosphonium chloride] + O | 4241.9 |
| [Cl-].c1ccc([P+](c2ccccc2)(c2ccccc2)c2ccccc2)cc1 [tetraphenylphosphonium chloride] + CO | 2691.7 |
| [Cl-].c1ccc([P+](c2ccccc2)(c2ccccc2)c2ccccc2)cc1 [tetraphenylphosphonium chloride] + CC#N | 2250.6 |
| [Cl-].c1ccc([P+](c2ccccc2)(c2ccccc2)c2ccccc2)cc1 [tetraphenylphosphonium chloride] + CCO | 2623 |

* * *

Examples of molecules with documented specific heat capacity follow.
test: specific heat capacity at constant pressure; cn = amount concentration of the nth substance listed, in mol/dm3; settings: 311.65 K; 101 kPa; Liquid; heat flux microcalorimetry; c1 = 0.05
readout_label: specific heat capacity (J/K/kg)

| molecule | reported_measurement |
| --- | --- |
| [Cl-].c1ccc([P+](c2ccccc2)(c2ccccc2)c2ccccc2)cc1 [tetraphenylphosphonium chloride] + CO | 2628.9 |
| [Cl-].c1ccc([P+](c2ccccc2)(c2ccccc2)c2ccccc2)cc1 [tetraphenylphosphonium chloride] + CC#N | 2265.6 |
| [Cl-].c1ccc([P+](c2ccccc2)(c2ccccc2)c2ccccc2)cc1 [tetraphenylphosphonium chloride] + CCO | 2607.1 |
| [Cl-].c1ccc([P+](c2ccccc2)(c2ccccc2)c2ccccc2)cc1 [tetraphenylphosphonium chloride] + O | 4218.4 |

* * *

The molecules listed here are annotated with their specific heat capacity.
assay: specific heat capacity at constant pressure; cn = amount concentration of the nth substance listed, in mol/dm3; details: 314.65 K; 101 kPa; Liquid; heat flux microcalorimetry; c1 = 0.005

| molecule | value_units | specific heat capacity |
| --- | --- | --- |
| [Cl-].c1ccc([P+](c2ccccc2)(c2ccccc2)c2ccccc2)cc1 [tetraphenylphosphonium chloride] + CO | J/K/kg | 2570.9 |
| [Cl-].c1ccc([P+](c2ccccc2)(c2ccccc2)c2ccccc2)cc1 [tetraphenylphosphonium chloride] + O | J/K/kg | 4203.8 |
| [Cl-].c1ccc([P+](c2ccccc2)(c2ccccc2)c2ccccc2)cc1 [tetraphenylphosphonium chloride] + CC#N | J/K/kg | 2281.3 |
| [Cl-].c1ccc([P+](c2ccccc2)(c2ccccc2)c2ccccc2)cc1 [tetraphenylphosphonium chloride] + CCO | J/K/kg | 2627.1 |

* * *

The compounds listed here are annotated with their specific heat capacity.
assay: specific heat capacity at constant pressure; cn = amount concentration of the nth substance listed, in mol/dm3; conditions: 308.65 K; 101 kPa; Liquid; heat flux microcalorimetry; c1 = 0.02
readout_label: specific heat capacity (J/K/kg)

| compound | value_units | reported_measurement |
| --- | --- | --- |
| [Cl-].c1ccc([P+](c2ccccc2)(c2ccccc2)c2ccccc2)cc1 [tetraphenylphosphonium chloride] + CCO | J/K/kg | 2549.3 |
| [Cl-].c1ccc([P+](c2ccccc2)(c2ccccc2)c2ccccc2)cc1 [tetraphenylphosphonium chloride] + CC#N | J/K/kg | 2258.9 |
| [Cl-].c1ccc([P+](c2ccccc2)(c2ccccc2)c2ccccc2)cc1 [tetraphenylphosphonium chloride] + CO | J/K/kg | 2556.9 |
| [Cl-].c1ccc([P+](c2ccccc2)(c2ccccc2)c2ccccc2)cc1 [tetraphenylphosphonium chloride] + O | J/K/kg | 4207 |

* * *

experiment: specific heat capacity at constant pressure; cn = amount concentration of the nth substance listed, in mol/dm3; details: 311.65 K; 101 kPa; Liquid; heat flux microcalorimetry; c2 = 0
Numbers after ± are expanded uncertainties.

| compound | specific heat capacity |
| --- | --- |
| CO [methanol] + [Cl-].c1ccc([P+](c2ccccc2)(c2ccccc2)c2ccccc2)cc1 | 2577 ± 52 J/K/kg |
| CCO [ethanol] + [Cl-].c1ccc([P+](c2ccccc2)(c2ccccc2)c2ccccc2)cc1 | 2653.8 ± 53 J/K/kg |
| O [water] + [Cl-].c1ccc([P+](c2ccccc2)(c2ccccc2)c2ccccc2)cc1 | 4182.2 ± 84 J/K/kg |
| CC#N [acetonitrile] + [Cl-].c1ccc([P+](c2ccccc2)(c2ccccc2)c2ccccc2)cc1 | 2280.4 ± 46 J/K/kg |

* * *

assay: specific heat capacity at constant pressure; cn = amount concentration of the nth substance listed, in mol/dm3; conditions: 308.65 K; 101 kPa; Liquid; heat flux microcalorimetry; c2 = 0
Entries annotated with measured specific heat capacity

| molecule | value_units | specific heat capacity |
| --- | --- | --- |
| CCO [ethanol] + [Cl-].c1ccc([P+](c2ccccc2)(c2ccccc2)c2ccccc2)cc1 | J/K/kg | 2592.8 |
| CO [methanol] + [Cl-].c1ccc([P+](c2ccccc2)(c2ccccc2)c2ccccc2)cc1 | J/K/kg | 2554.5 |
| CC#N [acetonitrile] + [Cl-].c1ccc([P+](c2ccccc2)(c2ccccc2)c2ccccc2)cc1 | J/K/kg | 2274.3 |
| O [water] + [Cl-].c1ccc([P+](c2ccccc2)(c2ccccc2)c2ccccc2)cc1 | J/K/kg | 4182 |

* * *

Consider the following compounds and their measured specific heat capacity readings.
assay: specific heat capacity at constant pressure; cn = amount concentration of the nth substance listed, in mol/dm3; settings: 308.65 K; 101 kPa; Liquid; heat flux microcalorimetry; c1 = 0.1

| compound | value_units | specific heat capacity |
| --- | --- | --- |
| [Cl-].c1ccc([P+](c2ccccc2)(c2ccccc2)c2ccccc2)cc1 [tetraphenylphosphonium chloride] + CC#N | J/K/kg | 2238.7 |
| [Cl-].c1ccc([P+](c2ccccc2)(c2ccccc2)c2ccccc2)cc1 [tetraphenylphosphonium chloride] + CO | J/K/kg | 2660.8 |
| [Cl-].c1ccc([P+](c2ccccc2)(c2ccccc2)c2ccccc2)cc1 [tetraphenylphosphonium chloride] + CCO | J/K/kg | 2570 |
| [Cl-].c1ccc([P+](c2ccccc2)(c2ccccc2)c2ccccc2)cc1 [tetraphenylphosphonium chloride] + O | J/K/kg | 4229.9 |

* * *

experiment: cn = amount concentration of the nth substance listed, in mol/dm3; conditions: 314.65 K; 101 kPa; Liquid; c1 = 0.005
mass density values for the compounds below.

| compound | mass density, kg/m3 |
| --- | --- |
| [Cl-].c1ccc([P+](c2ccccc2)(c2ccccc2)c2ccccc2)cc1 [tetraphenylphosphonium chloride] + O | 991.77 |
| [Cl-].c1ccc([P+](c2ccccc2)(c2ccccc2)c2ccccc2)cc1 [tetraphenylphosphonium chloride] + CO | 771.62 |
| [Cl-].c1ccc([P+](c2ccccc2)(c2ccccc2)c2ccccc2)cc1 [tetraphenylphosphonium chloride] + CC#N | 762.76 |
| [Cl-].c1ccc([P+](c2ccccc2)(c2ccccc2)c2ccccc2)cc1 [tetraphenylphosphonium chloride] + CCO | 772.48 |

* * *

experiment: specific heat capacity at constant pressure; cn = amount concentration of the nth substance listed, in mol/dm3; conditions: 314.65 K; 101 kPa; Liquid; heat flux microcalorimetry; c1 = 0.05

| compound | specific heat capacity (J/K/kg) |
| --- | --- |
| [Cl-].c1ccc([P+](c2ccccc2)(c2ccccc2)c2ccccc2)cc1 [tetraphenylphosphonium chloride] + O | 4219.7 |
| [Cl-].c1ccc([P+](c2ccccc2)(c2ccccc2)c2ccccc2)cc1 [tetraphenylphosphonium chloride] + CO | 2637.3 |
| [Cl-].c1ccc([P+](c2ccccc2)(c2ccccc2)c2ccccc2)cc1 [tetraphenylphosphonium chloride] + CCO | 2650 |
| [Cl-].c1ccc([P+](c2ccccc2)(c2ccccc2)c2ccccc2)cc1 [tetraphenylphosphonium chloride] + CC#N | 2267.5 |
